Measured values drawn from patent US4684664A for this set.

test system: Proteus vulgaris HX-19; test: Antibacterial activity, agar-dilution MIC, organism No. 21; type: cell-based; conditions: Proteus vulgaris, HX19; Organism No. 21, bouillon-agar; read-out: Minimum Inhibitory Concentration
experimental-endpoint: MIC (µg/mL)
Give bare numbers, in µg/mL.

// solved cases for MIC follow
compound	experimental-system	MIC / µg/mL
[C-]#[N+]C12CC3(/C=C/C(=O)OCC(=O)c4ccc(Br)cc4)OC3C1O2 (centres unmarked) [Compound No. 4, p-bromophenacylβ-substituted acrylate]	Proteus vulgaris HX-19	0.39
[C-]#[N+]C12CC3(/C=C/C(=O)N4CCOCC4)OC3C1O2 (centres unmarked)	Proteus vulgaris HX-19	1.56
[C-]#[N+]C12CC3(/C=C/C(=O)OCc4ccccc4[N+](=O)[O-])OC3C1O2 (centres unmarked)	Proteus vulgaris HX-19	0.1
[C-]#[N+]C12CC3(/C=C/C(=O)OCc4c(C)cc(C)cc4C)OC3C1O2 (centres unmarked)	Proteus vulgaris HX-19	3.13
[C-]#[N+]C12CC3(/C=C/C(=O)N4CCCC4)OC3C1O2 (centres unmarked)	Proteus vulgaris HX-19	1.56

[Q] Lab note: need MIC for [C-]#[N+]C12CC3(/C=C/C(=O)OCC(=O)c4ccc(Cl)cc4)OC3C1O2 (centres unmarked) on Proteus vulgaris HX-19, anyone have it?
[A] 0.39

----------
Could you please report measured MIC for the items listed next?
test system: Proteus mirabilis IFO 3849; assay: Antibacterial activity, agar-dilution MIC, organism No. 19; type: cell-based; details: Proteus mirabilis, IFO3849; Organism No. 19, bouillon-agar; read-out: Minimum Inhibitory Concentration

Guide cases for MIC, answers given:
> print(dat)
                                   compound         experimental.system  experimental.endpoint  observed.measurement
1  [C-]#[N+]C12CC3(/C=C/C(=O)OCC(=O)c4ccccc4)OC3C1O2 (stereo not shown)  Proteus mirabilis IFO 3849                    MIC               50 mg/L
2  [C-]#[N+]C12CC3(/C=C/C(=O)Nc4cccc([N+](=O)[O-])c4)OC3C1O2 (stereo not shown)  Proteus mirabilis IFO 3849                    MIC             12.5 mg/L
3  [C-]#[N+]C12CC3(/C=C/C(=O)Nc4ccc(C(=O)c5ccccc5)cc4)OC3C1O2 (stereo not shown)  Proteus mirabilis IFO 3849                    MIC            > 200 mg/L
4  [C-]#[N+]C12CC3(/C=C/C(=O)N[C@@H](Cc4ccccc4)C(=O)OCc4ccccc4)OC3C1O2 (stereo partly shown)  Proteus mirabilis IFO 3849                    MIC            > 200 mg/L
5  [C-]#[N+]C12CC3(/C=C/C(=O)Nc4cccc(Cl)c4)OC3C1O2 (stereo not shown)  Proteus mirabilis IFO 3849                    MIC            > 200 mg/L
6  [C-]#[N+]C12CC3(/C=C/C(=O)Nc4ccccc4OC)OC3C1O2 (stereo not shown)  Proteus mirabilis IFO 3849                    MIC            > 200 mg/L
7  [C-]#[N+]C12CC3(/C=C/C(=O)Nc4ccc(S(N)(=O)=O)cc4)OC3C1O2 (stereo not shown)  Proteus mirabilis IFO 3849                    MIC            > 200 mg/L
8  [C-]#[N+]C12CC3(/C=C/C(=O)OCc4cccc(OC)c4)OC3C1O2 (stereo not shown)  Proteus mirabilis IFO 3849                    MIC             3.13 mg/L

Give one value of MIC per listed compound.
1. [C-]#[N+]C12CC3(/C=C/C(=O)Nc4ccc(OC(C)C)cc4)OC3C1O2 (stereo not shown)
2. [C-]#[N+]C12CC3(/C=C/C(=O)NOCc4ccccc4)OC3C1O2 (stereo not shown)

[A]
["> 200 mg/L", "> 200 mg/L"]

Need MIC for each of these compounds.
1. [C-]#[N+]C12CC3(/C=C/C(=O)OCC)OC3C1O2 (stereo not drawn) [Compound No. 2, ethyl β-substituted acrylate]
2. [C-]#[N+]C12CC3(/C=C/C(=O)OCc4cc([N+](=O)[O-])ccc4OC)OC3C1O2 (stereo not shown)
3. [C-]#[N+]C12CC3(/C=C/C(=O)Nc4ccc(C(=O)OC)cc4)OC3C1O2 (stereo not shown)

[A]
1: 25 mg/L; 2: > 200 mg/L; 3: > 200 mg/L

Dear colleague, could you please provide MIC for the compounds listed below?
1. [C-]#[N+]C12CC3(/C=C/C(=O)OCc4ccc([N+](=O)[O-])cc4)OC3C1O2 (stereo not shown)
2. [C-]#[N+]C12CC3(/C=C/C(=O)N[C@@H](CCC(=O)OCc4ccccc4)C(=O)OCc4ccccc4)OC3C1O2 (stereo partly shown)
3. [C-]#[N+]C12CC3(/C=C/C(=O)Nc4cccc(N)c4)OC3C1O2 (stereo not shown)

[A]
1: 100 mg/L; 2: > 200 mg/L; 3: > 200 mg/L
